B1: Intersectin-1, residues 1156 to 1213; numbered along this chain, Q15811 (parent)
chain: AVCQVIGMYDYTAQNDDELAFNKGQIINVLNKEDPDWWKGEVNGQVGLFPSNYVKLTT

Variants of: B1
experimental details: abundance fitness (aPCA) (normalised: wild type 0, dead -1); higher = more abundant; growth selection in yeast, the domain comes from the species named
reported conditions: Homo sapiens
Classify as follows. Reported abundance fitness greater than or equal to -0.5: fulfilled. Reported abundance fitness below: not fulfilled.

{"mutation name": "K23I", "discrete label": "not fulfilled"}
{"mutation name": "V54E", "discrete label": "not fulfilled"}
{"mutation name": "D17Y", "discrete label": "fulfilled"}
{"mutation name": "Y11L", "discrete label": "not fulfilled"}
{"mutation name": "K32Q", "discrete label": "fulfilled"}
{"mutation name": "F49L", "discrete label": "not fulfilled"}
{"mutation name": "I6D", "discrete label": "not fulfilled"}
{"mutation name": "Q45L", "discrete label": "fulfilled"}
{"mutation name": "N22S", "discrete label": "fulfilled"}
{"mutation name": "T12W", "discrete label": "not fulfilled"}
{"mutation name": "Y53W", "discrete label": "fulfilled"}
{"mutation name": "K23W", "discrete label": "not fulfilled"}
{"mutation name": "A13L", "discrete label": "not fulfilled"}
{"mutation name": "I27R", "discrete label": "not fulfilled"}
{"mutation name": "A13S", "discrete label": "fulfilled"}
{"mutation name": "N52V", "discrete label": "fulfilled"}
{"mutation name": "N28M", "discrete label": "fulfilled"}
{"mutation name": "D17Q", "discrete label": "fulfilled"}
{"mutation name": "E33V", "discrete label": "fulfilled"}
{"mutation name": "F21Q", "discrete label": "not fulfilled"}
{"mutation name": "Y11N", "discrete label": "not fulfilled"}
{"mutation name": "V29N", "discrete label": "not fulfilled"}
